Test: Chrom logD assay
Format: physicochemical
Conditions: reversed phase HPLC column (Gemini NX C18), pH 7.4; read-out: Log D
Non-standard residues stand in square brackets, D forms with d. Residues, ends and D or L forms follow the SMILES beside them. *: point of attachment. NMeN = CN[C@@H](CC(N)=O)C(=O)O; NMeL = CN[C@@H](CC(C)C)C(=O)O; dNMeL = CN[C@H](CC(C)C)C(=O)O; NMeV = CN[C@H](C(=O)O)C(C)C; dOrn = NCCC[C@@H](N)C(=O)O; tBu = CC(C)(C)*
Quick reference for chromatographic logD among some molecules
Write the number on its own, no unit after it.

>>> experimental_result("CC(C)C[C@@H]1NC(=O)[C@H](Cc2c[nH]c3ccccc23)NC(=O)[C@@H](CCCN)NC(=O)[C@H](CC(N)=O)N(C)C(=O)[C@H](C(C)C)NC(=O)[C@@H](CC(C)C)N(C)C1=O [Compound 25c] (cyclo(L[dNMeL]V[NMeN][dOrn]W))")
2.25
>>> experimental_result("CC(C)C[C@@H]1NC(=O)[C@H](Cc2c[nH]c3ccccc23)NC(=O)[C@@H](CCCN)NC(=O)[C@H](CC(N)=O)NC(=O)[C@H](C(C)C)N(C)C(=O)[C@@H](CC(C)C)NC1=O [Compound 22c] (cyclo(L[dL][NMeV]N[dOrn]W))")
1.96
>>> experimental_result("COc1ccc(C[C@@H]2NC(=O)[C@@H](CCCN)NC(=O)[C@H](CC(N)=O)NC(=O)[C@H](C(C)C)NC(=O)[C@@H](CC(C)C)NC(=O)[C@H](CC(C)C)NC2=O)cc1 [Compound 15c] (cyclo(L[dL]VN[dOrn]Y(Me)))")
1.73
>>> experimental_result("CSCC[C@@H]1NC(=O)[C@@H](CC(C)C)NC(=O)[C@H](CC(C)C)NC(=O)[C@H](Cc2c[nH]c3ccccc23)NC(=O)[C@@H](CCCN)NC(=O)[C@H](CC(N)=O)NC1=O [Compound 8c] (cyclo(L[dL]MN[dOrn]W))")
1.78
>>> experimental_result("CC(C)C[C@H]1NC(=O)[C@H](CC(C)C)N(C)C(=O)[C@H](Cc2c[nH]c3ccccc23)NC(=O)[C@@H](CCCN)NC(=O)[C@H](CC(N)=O)N(C)C(=O)[C@H](C(C)C)NC1=O [Compound 23c] (cyclo([NMeL][dL]V[NMeN][dOrn]W))")
2
>>> experimental_result("CC[C@H](C)[C@@H]1NC(=O)[C@H](CC(C)C)NC(=O)[C@H](Cc2c[nH]c3ccccc23)NC(=O)[C@@H](CCCN)NC(=O)[C@H](CC(N)=O)NC(=O)[C@H](C(C)C)NC1=O [Compound 20c] (cyclo(IVN[dOrn]WL))")
1.83

Recorded chromatographic logD (molecule CC[C@H](C)[C@@H]1NC(=O)[C@H]([C@@H](C)CC)NC(=O)[C@@H](CC(C)C)NC(=O)[C@H](CC(C)C)NC(=O)[C@H](Cc2c[nH]c3ccccc23)NC(=O)[C@@H](CCCN)NC1=O [Compound 12c] (cyclo(II[dOrn]WL[dL])) ): 2.94

Recorded chromatographic logD (molecule CC[C@H](C)[C@@H]1NC(=O)[C@@H](CC(C)C)NC(=O)[C@H](CC(C)C)NC(=O)[C@H](Cc2c[nH]c3ccccc23)NC(=O)[C@@H](CCCN)NC(=O)[C@H](COC(C)(C)C)NC1=O [Compound 11c] (cyclo(IS(tBu)[dOrn]WL[dL])) ): 3

Recorded chromatographic logD (molecule CC[C@H](C)[C@@H]1NC(=O)[C@@H](CC(C)C)NC(=O)[C@H](CC(C)C)NC(=O)[C@H](Cc2c[nH]c3ccccc23)NC(=O)[C@@H](CCCN)NC(=O)[C@H](CO)NC1=O [Compound 10c] (cyclo(IS[dOrn]WL[dL])) ): 2.16

Recorded chromatographic logD (molecule CC[C@H](C)[C@@H]1NC(=O)[C@H](Cc2c[nH]c3ccccc23)NC(=O)[C@@H](CCCN)NC(=O)[C@H](CC(N)=O)NC(=O)[C@H](C(C)C)NC(=O)[C@@H](CC(C)C)NC1=O [Compound 19c] (cyclo(I[dL]VN[dOrn]W)) ): 1.73
